Target: OATP1B3 (Homo sapiens, UniProt Q9NPD5)
Sequence (Q9NPD5 whole entry): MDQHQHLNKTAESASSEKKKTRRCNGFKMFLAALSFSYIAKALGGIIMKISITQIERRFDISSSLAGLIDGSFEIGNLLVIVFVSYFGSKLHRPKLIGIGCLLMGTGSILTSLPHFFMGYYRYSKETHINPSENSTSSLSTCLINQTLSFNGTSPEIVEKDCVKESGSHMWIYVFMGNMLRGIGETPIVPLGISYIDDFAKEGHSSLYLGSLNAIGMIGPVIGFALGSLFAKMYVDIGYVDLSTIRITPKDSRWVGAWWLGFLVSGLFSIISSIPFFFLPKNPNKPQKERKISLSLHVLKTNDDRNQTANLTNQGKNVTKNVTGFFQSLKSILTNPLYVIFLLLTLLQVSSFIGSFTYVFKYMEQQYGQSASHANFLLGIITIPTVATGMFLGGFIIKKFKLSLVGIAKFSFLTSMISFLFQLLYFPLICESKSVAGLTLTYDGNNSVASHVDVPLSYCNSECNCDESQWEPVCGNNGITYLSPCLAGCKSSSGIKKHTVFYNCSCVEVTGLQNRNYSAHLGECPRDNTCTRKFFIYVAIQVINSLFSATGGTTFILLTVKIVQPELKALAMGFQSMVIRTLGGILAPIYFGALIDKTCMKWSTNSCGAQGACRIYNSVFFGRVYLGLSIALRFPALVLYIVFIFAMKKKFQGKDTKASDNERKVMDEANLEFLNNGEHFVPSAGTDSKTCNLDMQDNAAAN
Experiment: In vitro inhibition of OATP1B3
Format: in vitro ADME
Settings: did not inhibit
pIC50: −log10 of the molar value.
MEASURED_ENDPOINT: pIC50

Req: # query: pIC50 of entry C[C@@H]1CCO[C@H]2Cn3cc(C(=O)NCc4ccc(F)cc4F)c(=O)c(O)c3C(=O)N12
Resp: < 4.30

Source: patent US20220096487A1
